Just for reference, paper PMC7700809 is where these values come from.

assay: In vivo plasma pharmacokinetics in mice; conditions: male, mouse, iv, I.V. 1 mg/kg
metricName: C0 (ng/mL)
Use ng/mL as the unit, but write only the number.

stdin: Any idea what its C0 is? The molecule is CC[C@H]1CN2CCc3cc(OC)c(OC)cc3[C@@H]2C[C@@H]1C[C@H]1NCCc2cc(OC)c(OC)cc21 [Emetine]
stdout: 172

----------
assay: In vivo plasma pharmacokinetics in rats; parameters: species or system Sprague-Dawley rats; conditions: Sprague-Dawley, iv, Rat, I.V. 1 mg/kg, read-out: Vz
metricName: Vd
Enter the number, and then the unit.

stdin: Any idea what its Vd is? The molecule is `CC[C@H]1CN2CCc3cc(OC)c(OC)cc3[C@@H]2C[C@@H]1C[C@H]1NCCc2cc(OC)c(OC)cc21`
stdout: 163 L/kg

----------
test: in vivo; conditions: Sprague-Dawley, rat, lung, po, 1 mg/kg
metricName: Tmax (h)
Use h as the unit, but write only the number.

stdin: Any idea what its Tmax is? The compound is `CC[C@H]1CN2CCc3cc(OC)c(OC)cc3[C@@H]2C[C@@H]1C[C@H]1NCCc2cc(OC)c(OC)cc21`
stdout: 12

----------
assay: in vivo; settings: male, mouse, iv, 1 mg/kg, AUC0-∞, mice, I.V. 1 mg/kg, Lung
metricName: AUC(0-inf)
Enter the number, and then the unit.

stdin: Any idea what its AUC(0-inf) is? The compound is `CC[C@H]1CN2CCc3cc(OC)c(OC)cc3[C@@H]2C[C@@H]1C[C@H]1NCCc2cc(OC)c(OC)cc21`
stdout: 65400 ng·h/mL

----------
Test: In vivo plasma pharmacokinetics in mice
Details: male, mouse, iv, I.V. 1 mg/kg, read-out: MRT0-∞
Experimental: After dosage, blood samples were collected into heparinized tubes at 2, 5, 15, 30, 60, 120, 240, 360, 540, and 720 min for the i.v. group, and at 5, 15, 30, 60, 90, 120, 240, 360, 540, 720 and 1440 min for the i.g. group. Plasma (100 μL) was isolated from the blood sample by centrifuging at 4 °C and 6000 rpm for 3 min and then stored at − 80 °C until analysis. An aliquot of 100 μL of each plasma sample was mixed with 20 μL of internal standard working solution (200 ng/mL of caffeine). […]
metricName: MRT inf (h)
Use h as the unit, but write only the number.

stdin: Any idea what its MRT inf is? The molecule is `CC[C@H]1CN2CCc3cc(OC)c(OC)cc3[C@@H]2C[C@@H]1C[C@H]1NCCc2cc(OC)c(OC)cc21`
stdout: 13.4

----------
assay: In vivo plasma pharmacokinetics in beagle dogs; details: beagle, po, Dog, P.O. 5 mg/kg
metricName: Tmax (min)
Use min as the unit, but write only the number.

stdin: Any idea what its Tmax is? The molecule is CC[C@H]1CN2CCc3cc(OC)c(OC)cc3[C@@H]2C[C@@H]1C[C@H]1NCCc2cc(OC)c(OC)cc21 [Emetine]
stdout: 15

----------
assay: In vivo plasma pharmacokinetics in mice; conditions: male, mouse, po, P.O. 10 mg/kg
metricName: Tmax (h)
Use h as the unit, but write only the number.

stdin: Any idea what its Tmax is? The compound is CC[C@H]1CN2CCc3cc(OC)c(OC)cc3[C@@H]2C[C@@H]1C[C@H]1NCCc2cc(OC)c(OC)cc21 [Emetine]
stdout: 1.67

----------
assay: In vivo plasma pharmacokinetics in mice; settings: male, mouse, iv, I.V. 1 mg/kg
metricName: half-life (min)
Use min as the unit, but write only the number.

stdin: Any idea what its half-life is? The compound is `CC[C@H]1CN2CCc3cc(OC)c(OC)cc3[C@@H]2C[C@@H]1C[C@H]1NCCc2cc(OC)c(OC)cc21`
stdout: 374

----------
assay: In vivo plasma pharmacokinetics in mice; details: male, mouse, po, P.O. 10 mg/kg
metricName: Cmax (ng/mL)
Use ng/mL as the unit, but write only the number.

stdin: Any idea what its Cmax is? The compound is CC[C@H]1CN2CCc3cc(OC)c(OC)cc3[C@@H]2C[C@@H]1C[C@H]1NCCc2cc(OC)c(OC)cc21 [Emetine]
stdout: 61.6

----------
experiment: in vivo; conditions: mouse, iv, 1 mg/kg, Cmax, mice, I.V. 1 mg/kg, Kidney
metricName: Cmax (ng/mL)
Use ng/mL as the unit, but write only the number.

stdin: Any idea what its Cmax is? The compound is `CC[C@H]1CN2CCc3cc(OC)c(OC)cc3[C@@H]2C[C@@H]1C[C@H]1NCCc2cc(OC)c(OC)cc21`
stdout: 4550

----------
assay: in vivo; settings: mouse, iv, 1 mg/kg, T1/2, mice, I.V. 1 mg/kg, Kidney
metricName: half-life (h)
Use h as the unit, but write only the number.

stdin: Any idea what its half-life is? The compound is `CC[C@H]1CN2CCc3cc(OC)c(OC)cc3[C@@H]2C[C@@H]1C[C@H]1NCCc2cc(OC)c(OC)cc21`
stdout: 20.9

----------
test: In vivo plasma pharmacokinetics in mice; conditions: male, mouse, iv, I.V. 1 mg/kg
metricName: AUC(0-inf) (ng·h/mL)
Use ng·h/mL as the unit, but write only the number.

stdin: Any idea what its AUC(0-inf) is? The molecule is CC[C@H]1CN2CCc3cc(OC)c(OC)cc3[C@@H]2C[C@@H]1C[C@H]1NCCc2cc(OC)c(OC)cc21 [Emetine]
stdout: 258

----------
assay: In vivo plasma pharmacokinetics in rats; set-up: species or system Sprague-Dawley rats; settings: Sprague-Dawley, iv, Rat, I.V. 1 mg/kg, read-out: MRT0-∞
metricName: MRT inf (h)
Use h as the unit, but write only the number.

stdin: Any idea what its MRT inf is? The compound is CC[C@H]1CN2CCc3cc(OC)c(OC)cc3[C@@H]2C[C@@H]1C[C@H]1NCCc2cc(OC)c(OC)cc21 [Emetine]
stdout: 7.76

----------
assay: In vivo plasma pharmacokinetics in beagle dogs; settings: beagle, po, Dog, P.O. 5 mg/kg
metricName: Cmax (ng/mL)
Use ng/mL as the unit, but write only the number.

stdin: Any idea what its Cmax is? The compound is `CC[C@H]1CN2CCc3cc(OC)c(OC)cc3[C@@H]2C[C@@H]1C[C@H]1NCCc2cc(OC)c(OC)cc21`
stdout: 245

----------
Experiment: In vivo plasma pharmacokinetics in mice
Conditions: male, mouse, iv, I.V. 1 mg/kg, read-out: MRT0-t
Description: After dosage, blood samples were collected into heparinized tubes at 2, 5, 15, 30, 60, 120, 240, 360, 540, and 720 min for the i.v. group, and at 5, 15, 30, 60, 90, 120, 240, 360, 540, 720 and 1440 min for the i.g. group. Plasma (100 μL) was isolated from the blood sample by centrifuging at 4 °C and 6000 rpm for 3 min and then stored at − 80 °C until analysis. An aliquot of 100 μL of each plasma sample was mixed with 20 μL of internal standard working solution (200 ng/mL of caffeine). […]
metricName: MRT last (h)
Use h as the unit, but write only the number.

stdin: Any idea what its MRT last is? The compound is CC[C@H]1CN2CCc3cc(OC)c(OC)cc3[C@@H]2C[C@@H]1C[C@H]1NCCc2cc(OC)c(OC)cc21 [Emetine]
stdout: 5.06

----------
experiment: In vivo plasma pharmacokinetics in beagle dogs; conditions: beagle, po, Dog, P.O. 5 mg/kg, read-out: MRT0-∞
metricName: MRT inf (h)
Use h as the unit, but write only the number.

stdin: Any idea what its MRT inf is? The compound is `CC[C@H]1CN2CCc3cc(OC)c(OC)cc3[C@@H]2C[C@@H]1C[C@H]1NCCc2cc(OC)c(OC)cc21`
stdout: 10.7

----------
experiment: in vivo; conditions: male, mouse, iv, 1 mg/kg, AUC0-∞, mice, I.V. 1 mg/kg, Kidney
metricName: AUC(0-inf) (ng·h/mL)
Use ng·h/mL as the unit, but write only the number.

stdin: Any idea what its AUC(0-inf) is? The molecule is `CC[C@H]1CN2CCc3cc(OC)c(OC)cc3[C@@H]2C[C@@H]1C[C@H]1NCCc2cc(OC)c(OC)cc21`
stdout: 99100

----------
test: In vivo plasma pharmacokinetics in rats; parameters: species or system Sprague-Dawley rats; settings: Sprague-Dawley, po, Rat, P.O. 10 mg/kg
metricName: half-life (h)
Use h as the unit, but write only the number.

stdin: Any idea what its half-life is? The compound is `CC[C@H]1CN2CCc3cc(OC)c(OC)cc3[C@@H]2C[C@@H]1C[C@H]1NCCc2cc(OC)c(OC)cc21`
stdout: 5.16

----------
assay: In vivo plasma pharmacokinetics in mice; details: male, mouse, iv, I.V. 1 mg/kg
metricName: clearance
Enter the number, and then the unit.

stdin: Any idea what its clearance is? The compound is `CC[C@H]1CN2CCc3cc(OC)c(OC)cc3[C@@H]2C[C@@H]1C[C@H]1NCCc2cc(OC)c(OC)cc21`
stdout: 68.6 mL/min/kg
